assay-comment: chemical genetic growth profiling, strain panel (AID 1159580);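 note: tested at 20 µM; growth read once vehicle control cultures reached saturation at 30 °C; 1 = growth at the plate median or of vehicle wells; lower values mean less growth of the strain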
condition-summary: S. cerevisiae deletion strains, growth OD, locus YOL078W, strain AVO1, hits give low values
In all, about 5,500 compounds went through this assay and about 2,000 (36%) were called active. Another 18% or so got no clear call; they are omitted. The list shows a part of the results.
measurement-type: normalized growth
Please respond with just the number, no unit label.

Recorded results for 5 compounds are shown here.
compound	reported-measurement
Clc1cccc(Nc2ncc(-c3ccc4c(c3)OCCCO4)s2)c1	0.972
N#Cc1cccc(CSc2nc3ccc(C(F)(F)F)cc3[nH]2)c1	0.974
O=S(=O)(NCc1cc(Cl)cc(Cl)c1)c1cc(C(F)(F)F)cc(C(F)(F)F)c1	0.997
Clc1cc(Cl)cc(C=NCc2ccccc2)c1	0.965
O=C(Nc1ccncc1)c1cc(-c2ccccc2)oc1C(F)(F)F	0.988

// query Tell me the measured normalized growth of Cc1noc(C)c1S(=O)(=O)Nc1csc(C(F)(F)F)c1-c1ccccc1 , please.
// result 0.978

// query And what about the compound CNC(=O)Sc1c(-c2ccc(Cl)cc2)nn(C(=O)NC)c1SC ?
// result 0.981

// query And what about the compound N#Cc1ccc(Oc2sccc2[N+](=O)[O-])cc1 ?
// result 0.914

* * *

Listed here are compounds together with their documented normalized growth.
assay-comment: chemical genetic growth profiling, strain panel (AID 1159580);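 note: tested at 20 µM; growth read once vehicle control cultures reached saturation at 30 °C; 1 = growth at the plate median or of vehicle wells; lower values mean less growth of the strain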
condition-summary: S. cerevisiae deletion strains, growth OD, locus YLR371W, strain rom2, hits give low values
Screen size: about 5,500 compounds; about 2,000 (36%) were called active. Another 18% or so got no clear call; they are omitted. Some of the results follow.
Please respond with just the number, no unit label.

Recorded results for 5 compounds are shown here.
compound	measurement-type	reported-measurement
NCCCCNCCCN	normalized growth	0.979
CC1CCC(NC(=O)N(CCCl)N=O)CC1 (stereo not given)	normalized growth	0.941
CCCn1c(=O)c2[nH]c(C3CCCC3)nc2n(CCC)c1=O	normalized growth	0.951
CCC(C)C(=O)c1c(O)c(C)c2oc3c(C)c(O)c(C(=O)C(C)CC)c(O)c3c2c1O (stereo not given)	normalized growth	0.973
CC(=O)O[C@H]1C[C@@H](OC(C)=O)C(C)(C)C2C[C@@H](O)[C@]3(C)C(CC[C@@]4(C)[C@H](c5ccoc5)OC(=O)[C@H]5O[C@]543)[C@]21C (stereo not given in full)	normalized growth	0.986

// query Tell me the measured normalized growth of CC(=O)O[C@@H]1CC2C(C)(C)[C@H](O)CC[C@]2(C)C2CC[C@@]3(C)[C@H](c4ccoc4)OC(=O)[C@H]4O[C@]43[C@@]21C (stereo not given in full) , please.
// result 1.01

// query And what about the compound COC1C=CC23c4cc5c(cc4CN(CC2O)[C@@H]3C1)OCO5 (stereo not given in full) ?
// result 0.976

// query And what about the compound NC(N)=NCCN1CCCCCCC1 ?
// result 1.02

// query And what about the compound NC(N)=NCCCCN=C(N)N ?
// result 0.95

// query And what about the compound C=NC(C(=O)NC1C(=O)N2C1SC(C)(C)C2C(=O)O)c1ccccc1 (stereo not given) ?
// result 1.02

* * *

Listed here are compounds together with their documented normalized growth.
assay-comment: chemical genetic growth profiling, strain panel (AID 1159580);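 note: tested at 20 µM; growth read once vehicle control cultures reached saturation at 30 °C; 1 = growth at the plate median or of vehicle wells; lower values mean less growth of the strain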
condition-summary: S. cerevisiae deletion strains, growth OD, locus YLR370C, strain arc18, hits give low values
Among all 5,500 compounds or so, about 2,000 (36%) were called active. Not shown: some 18% with an inconclusive outcome. This is one part of the list.
Please respond with just the number, no unit label.

// query Tell me the measured normalized growth of COc1ccc(CCC(=O)c2c(O)cc(O[C@@H]3O[C@H](CO)C(O)[C@H](O)C3O[C@@H]3O[C@@H](C)[C@H](O)[C@@H](O)[C@H]3O)cc2O)cc1O (stereo not given in full) , please.
// result 1.01

// query And what about the compound O=c1[nH]c(=O)n(C2C[C@H](O)[C@@H](CO)O2)cc1C(F)(F)F (stereo not given in full) ?
// result 0.947

// query And what about the compound O=NN(CCCl)C(=O)NCCCl ?
// result 0.972

// query And what about the compound COc1ccc2c(c1)OCC(Cc1ccc(O)c(OC)c1)C2=O (stereo not given) ?
// result 0.948

// query And what about the compound C[C@@H]1CC[C@H]2C(C)(C)C3CC12CC[C@@]3(C)O (stereo not given in full) ?
// result 0.92

// query And what about the compound CCN1C[C@@]2(COC)C3[C@@H](OC)[C@H]4[C@@H]1[C@]3(C(OC)C[C@H]2O)C1C[C@@]2(O)[C@H](OC(=O)c3ccccc3)C1[C@]4(OC(C)=O)[C@@H](O)[C@@H]2OC (stereo not given in full) ?
// result 1.02

// query And what about the compound C=C1C(=O)[C@]23[C@H](O)[C@H]1CC[C@H]2[C@@]12CO[C@]3(O)[C@H](O)[C@@H]1C(C)(C)CC[C@@H]2O ?
// result 0.973

// query And what about the compound CC1CCC(NC(=O)N(CCCl)N=O)CC1 (stereo not given) ?
// result 0.913

// query And what about the compound O=C(O)CCCCCCCC(=O)O ?
// result 1.01

// query And what about the compound C[C@@H]1CC2C3CCC4=CC(=O)C=C[C@]4(C)[C@@]3(F)[C@@H](O)C[C@]2(C)[C@@]1(O)C(=O)CO (stereo not given in full) ?
// result 0.996

// query And what about the compound COc1c(C)c2c(c(O)c1C/C=C(\C)CCC(=O)O)C(=O)OC2 ?
// result 0.435

// query And what about the compound Nc1nc(F)nc2c1ncn2[C@@H]1O[C@H](COP(=O)(O)O)[C@@H](O)[C@@H]1O ?
// result 0.998

// query And what about the compound NCCCCC(=O)O ?
// result 1.02

// query And what about the compound CCCn1c(=O)c2[nH]c(C3CCCC3)nc2n(CCC)c1=O ?
// result 0.986
